test: Tmax in ICR mouse at 30 mg/kg, po measured upto 24 hrs by LC-MS/MS analysis; type: ADME, organism-based; settings: in vivo
recorded_endpoint: Tmax
Answer with the figure and its unit, nothing else.

# Tmax (molecule: CC[C@@H](C)[C@H](N)C(=O)N1CCn2cc(-c3ccccc3)nc2[C@@H]1CC1CCCCC1 ) is 25.2 min

* * *

experiment: Half life in ICR mouse at 10 mg/kg, iv measured upto 24 hrs by LC-MS/MS analysis; format: ADME, organism-based; details: in vivo
recorded_endpoint: half-life (h)
Please respond with the number in h and leave the unit unwritten.

# half-life (compound: CC[C@@H](C)[C@H](N)C(=O)N1CCn2cc(-c3ccccc3)nc2[C@@H]1CC1CCCCC1 ) is 1.17

The measured values listed here are drawn from ChEMBL document CHEMBL4808167.
